Values from patent US6608082B1

Biological target: MCR-1 (Homo sapiens, UniProt Q01726)
Construct: expressed in transfected cells; host or cells: HEK 293
Sequence (Q01726 whole entry): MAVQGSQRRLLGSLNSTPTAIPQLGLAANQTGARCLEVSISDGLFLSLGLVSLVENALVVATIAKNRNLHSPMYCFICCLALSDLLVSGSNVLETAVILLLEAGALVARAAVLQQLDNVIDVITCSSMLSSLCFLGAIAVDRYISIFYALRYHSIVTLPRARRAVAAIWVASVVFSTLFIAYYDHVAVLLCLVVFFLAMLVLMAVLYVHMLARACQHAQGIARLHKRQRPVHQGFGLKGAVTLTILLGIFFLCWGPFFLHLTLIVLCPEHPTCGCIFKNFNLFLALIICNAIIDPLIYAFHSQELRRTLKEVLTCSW
Assay: cAMP assay for melanocortin receptors, HEK 293 cells expressing MCR-1
Type: cell-based
Settings: maximum amount of cAMP
measurement_label: MC-1 Max (pmole) cAMP produced (pmol)
# number only, unit pmol dropped from output

Take a look at these entries with their results.
>  <compound>
CNC(CN)CCCCN1Cc2ccccc2C(CNC2CCCCC2)C1c1ccc(C(F)(F)F)cc1 (centres unmarked) [TRG 2405-238]

>  <system_tested>
MCR-1 (Homo sapiens, UniProt Q01726)

>  <measurement_label>
MC-1 Max (pmole) cAMP produced

>  <unit_abbrev>
pmol

>  <reported_measurement>
29.82

$$$$
>  <compound>
CNC(CN)CCCCN1Cc2ccccc2C(CNC2CCCCC2)C1c1ccc(Oc2ccccc2)cc1 (centres unmarked) [TRG 2405-252]

>  <system_tested>
MCR-1 (Homo sapiens, UniProt Q01726)

>  <measurement_label>
MC-1 Max (pmole) cAMP produced

>  <unit_abbrev>
pmol

>  <reported_measurement>
33.07

$$$$
>  <compound>
CNC(CN)CCCCN1Cc2ccccc2C(CNC2CCCCC2)C1c1ccc(Br)cc1 (centres unmarked) [TRG 2405-242]

>  <system_tested>
MCR-1 (Homo sapiens, UniProt Q01726)

>  <measurement_label>
MC-1 Max (pmole) cAMP produced

>  <unit_abbrev>
pmol

>  <reported_measurement>
55.89

$$$$
>  <compound>
CCCCNc1ccc(C2C(CNCc3ccccc3O)c3ccccc3CN2CCCCC(CN)NC)cc1 (centres unmarked) [TRG 2409-2]

>  <system_tested>
MCR-1 (Homo sapiens, UniProt Q01726)

>  <measurement_label>
MC-1 Max (pmole) cAMP produced

>  <unit_abbrev>
pmol

>  <reported_measurement>
200

$$$$

Okay, next one:
The compound listed as CNC(CN)CN1Cc2ccccc2C(CNC2CCCCC2)C1c1ccc(O)cc1 (centres unmarked) [TRG 2405-156] shows MC-1 Max (pmole) cAMP produced equal to 16.01

----------
Items are presented alongside their recorded % TNF-α Inhibtion, IP 100.
Tested on: TNF-α
Assay: Reduction of lipopolysaccharide-induced tumor necrosis factor levels in mice
Assay type: in vivo, BALB/c female mice
Conditions: IP, 100 μg per mouse; plasma 90 or 105 minutes after LPS; mean ± SEM
# number only, unit % dropped from output

Take a look at these entries with their results.
>  <molecule>
CNC(CN)CCCCN1Cc2ccccc2C(CNC2CCCCC2)C1c1ccc(Cl)cc1Cl (stereo not shown)

>  <% TNF-α Inhibtion, IP 100 [%]>
−6

$$$$
>  <molecule>
CNC(CN)CCCCN1Cc2ccccc2C(CNC2CCCCC2)C1c1ccc(-c2ccccc2)cc1 (stereo not shown)

>  <% TNF-α Inhibtion, IP 100 [%]>
75

$$$$
>  <molecule>
CCNc1ccc(C2C(CNC3CCCCC3)c3ccccc3CN2CCCCC(CN)NC)cc1 (stereo not shown)

>  <% TNF-α Inhibtion, IP 100 [%]>
10

$$$$
>  <molecule>
CNC(CN)CCCCN1Cc2ccccc2C(CNC2CCCCC2)C1c1ccc(N(C)C)cc1 (stereo not shown)

>  <% TNF-α Inhibtion, IP 100 [%]>
39

$$$$
>  <molecule>
CNC(CN)CCCCN1Cc2ccccc2C(CNC2CCCCC2)C1c1ccc(Br)cc1 (stereo not shown)

>  <% TNF-α Inhibtion, IP 100 [%]>
60

$$$$

The molecule listed as CNC(CN)CN1Cc2ccccc2C(CNC2CCCCC2)C1c1ccc(O)cc1 (stereo not shown) shows % TNF-α Inhibtion, IP 100 equal to 12

The molecule listed as CNC(CN)CCCCN1Cc2ccccc2C(CNC2CCCCC2)C1c1ccc(C(F)(F)F)cc1 (stereo not shown) shows % TNF-α Inhibtion, IP 100 equal to 73
